- Tested on: Plasmodium falciparum
- test: Antiplasmodial activity against chloroquine resistant Plasmodium falciparum W2 infected in erythrocytes (unknown origin) assessed as inhibition of parasite growth incubated for 90 hrs by SYBR green staining based fluorescence assay
- Assay type: functional, organism-based
- conditions_used: W2, Erythrocyte
reported_endpoint: IC50 (nM)
Give bare numbers, in nM.

# compound, reported_endpoint, value_measured
records = [
    ("CC(C)CC(c1nc2ccccc2n1Cc1cnn[nH]1)N1C(=O)c2ccccc2C1=O (configuration not stated)", "IC50", 900),
]

Now for a further compound.
Query: Fill in IC50 for record CC(C)CC(c1nc2ccccc2n1Cc1cnnn1-c1ccccc1)N1C(=O)c2ccccc2C1=O (configuration not stated)
Response: 700

---

- Tested on: Plasmodium falciparum
- test: Antiplasmodial activity against Plasmodium falciparum 3D7 assessed as inhibition of parasite growth incubated for 48 hrs by SYBR green I staining based fluorescence assay
- Format: functional, organism-based
- conditions_used: 3D7, 48 h
For each entry below, report its IC50 value.
One number for each entry, in nM.

# structure_notation, IC50 / nM
data = [
    ("O=C(N[C@H](Cc1ccccc1)[C@@H](O)CN1CCN(Cc2ccc(F)cc2)CC1)[C@@H](Cc1ccccc1)N1C(=O)c2ccccc2C1=O", 1330),
    ("CC(C)(C)OC(=O)N[C@H](Cc1ccccc1)[C@@H](O)CN1CCC(N2CCCCC2)CC1", 1160),
    ("O=C(N[C@H](Cc1ccccc1)[C@@H](O)CN1CCN(C[C@H](O)[C@@H](Cc2ccccc2)NC(=O)[C@@H](Cc2ccccc2)N2C(=O)c3ccccc3C2=O)CC1)[C@@H](Cc1ccccc1)N1C(=O)c2ccccc2C1=O", 1300),
]

Kindly review the next molecule as well.
Query: Hello, please tell me recorded IC50 for this one: CC(C)[C@@H](C(=O)N[C@H](Cc1ccccc1)[C@@H](O)CN1CCN(Cc2ccc(Br)cc2)CC1)N1C(=O)c2ccccc2C1=O
Response: 1250

---

- test: Cytotoxicity against human PBMC cells assessed as inhibition of cell growth incubated for 24 hrs by Celltiter-Glo assay
- Assay type: toxicity, cell-based
reported_endpoint: CC50 at 24 h
# answer = value followed by unit

Query: Report CC50 at 24 h, nothing else, for this compound: Cc1ccc2c(c1)C(=O)N(C(Cc1ccccc1)C(=O)NC(Cc1ccccc1)C(O)CN1CCN(CC(O)C(Cc3ccccc3)NC(=O)C(Cc3ccccc3)N3C(=O)c4ccc(C)cc4C3=O)CC1)C2=O (stereo unspecified)
Response: 11.1 µM
